Source of measurements: paper PMC9481602

- target: nonmodified ubiquitin (UniProt P0CG48 1-76)
- assay_procedure: NMR
property_measured: Kd (nM)
Form entry: value (nM) — number only.

Return Kd (reported value) for this binder: RFQQQLEQLNAMGFLNREANLQALIATGGDINAAIERLLGS (domain or fragment) [UBA domain of human Ubiquilin-2] 500
